System: human serum albumin
Assay: Prevention of albumin carbamylation by cyanate in the presence of competing nucleophiles (% C-Alb by LC-MS)
Conditions: 10 mM scavenger, human serum albumin 4 mg/ml, 0.25 mM cyanate, 37° C., 14 hours
Listed here: items and their measured % CarbAlb Average +/− SD.
Number in %, nothing else.

// query % CarbAlb Average +/− SD value for entry O=C(O)[C@@H]1CCCN1 [Proline] 34

// query % CarbAlb Average +/− SD value for entry NC(=O)CC[C@H](N)C(=O)O [Glutamine] 32

// query % CarbAlb Average +/− SD value for entry NCCCC[C@H](N)C(=O)O [Lysine] 31

// query % CarbAlb Average +/− SD value for entry N[C@@H](Cc1c[nH]cn1)C(=O)O [Histidine] 26

---

Tested on: human serum albumin
Test: Prevention of albumin carbamylation by cyanate in the presence of competing nucleophiles (% C-Alb by LC-MS)
Conditions: 10 mM scavenger, human serum albumin 4 mg/ml, 0.25 mM cyanate, 37° C., 14 hours
Binary call on % CarbAlb Average +/− SD with cut-off 30%: strictly below means rule met, and equality or higher means rule not met.

Problem: For the compound `N=C(N)NCCC[C@H](N)C(=O)O` , is % CarbAlb Average +/− SD under 30%? rule met

Problem: For the compound `NCCS(=O)(=O)O` , is % CarbAlb Average +/− SD under 30%? rule met

Problem: For the compound `CC(C)[C@H](N)C(=O)O` , is % CarbAlb Average +/− SD under 30%? rule not met

Problem: For the compound `N[C@@H](Cc1c[nH]c2ccccc12)C(=O)O` , is % CarbAlb Average +/− SD under 30%? rule not met

Problem: For the compound `N[C@@H](CS)C(=O)O` , is % CarbAlb Average +/− SD under 30%? rule met

Further cases:
Problem: For the compound `N[C@@H](CCC(=O)N[C@@H](CS)C(=O)NCC(=O)O)C(=O)O` , is % CarbAlb Average +/− SD under 30%? rule met

Problem: For the compound `C[C@H](N)C(=O)O` , is % CarbAlb Average +/− SD under 30%? rule not met

---

Listed here: items and their measured % CarbAlb Average +/− SD.
System: human serum albumin
Test: Prevention of albumin carbamylation by cyanate in the presence of competing nucleophiles (% C-Alb by LC-MS)
Details: 10 mM scavenger, human serum albumin 4 mg/ml, 0.25 mM cyanate, 37° C., 14 hours
Number in %, nothing else.

Example cases with answers are listed next.
// query % CarbAlb Average +/− SD value for entry N[C@@H](CCC(=O)O)C(=O)O [Glutamate] 38

// query % CarbAlb Average +/− SD value for entry `NCC(=O)O` 31

Moving on to another compound below.
// query % CarbAlb Average +/− SD value for entry `CC(C)C[C@H](N)C(=O)O` 37

Reference source: patent US9549964B2
